Reference source: patent US20210246166A1

Target: T1, recombinant rat MASP1 active protease (amino acids 302-704, C-terminal His Tag) (rat, UniProt Q8CHN8 302-704)
T1 sequence: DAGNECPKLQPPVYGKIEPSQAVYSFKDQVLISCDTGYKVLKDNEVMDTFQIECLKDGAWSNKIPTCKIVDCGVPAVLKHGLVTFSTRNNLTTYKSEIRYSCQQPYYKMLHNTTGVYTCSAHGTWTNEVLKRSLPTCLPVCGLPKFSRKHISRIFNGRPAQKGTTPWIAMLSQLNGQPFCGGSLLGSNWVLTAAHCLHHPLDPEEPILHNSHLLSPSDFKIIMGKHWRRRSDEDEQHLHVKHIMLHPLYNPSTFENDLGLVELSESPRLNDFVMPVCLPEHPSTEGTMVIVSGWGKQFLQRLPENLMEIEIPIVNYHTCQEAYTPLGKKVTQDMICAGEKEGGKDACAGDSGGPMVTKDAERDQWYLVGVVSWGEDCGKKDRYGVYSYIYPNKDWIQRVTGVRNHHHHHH
Experiment: cell-based or functional assay
Numbered stars: 1 amine (or outer) side, 2 acyl side, 3 side chain; on linkers, the order of the positions; unused ones are H or OH. Bridge positions count the residues as written; N and C are the ends. Square brackets hold non-standard residues; d marks the D form. Ends that are not written are not given here. X8 = (R)‑4‑Amino‑6‑methylheptanoic acid, CC(C)C[C@@H](CCC(=O)[*:2])N[*:1]; Oic = O=C(O)[C@@H]1C[C@@H]2CCCC[C@@H]2N1; Pen = CC(C)(S)[C@H](N)C(=O)O; Sar = CNCC(=O)O
Please provide measured rat MASP1 IC50 for the entries that follow.
Give bare numbers, in nM.

[Sar]ICSRSLP[Oic]I[Pen]IP[X8]-OH (disulfide 3-11; N-terminus assumed; SMILES CC[C@H](C)[C@H](NC(=O)CNC)C(=O)N[C@H]1CSSC(C)(C)[C@@H](C(=O)N[C@H](C(=O)N2CCC[C@H]2C(=O)N[C@H](CCC(=O)O)CC(C)C)[C@@H](C)CC)NC(=O)[C@H]([C@@H](C)CC)NC(=O)[C@@H]2C[C@@H]3CCCC[C@@H]3N2C(=O)[C@@H]2CCCN2C(=O)[C@H](CC(C)C)NC(=O)[C@H](CO)NC(=O)[C@H](CCCNC(=N)N)NC(=O)[C@H](CO)NC1=O) [Example 450: ((N-Me)G)-IC+SRSLP-(Oic)-I-(Pen)+IP-((R)-4-Amino-6-methylheptanoic acid)-OH]
31

Next binder, please.
What does the data say about its rat MASP1 IC50? Entry: [Sar]ICSRSLP[Oic]I[Pen]IPGD-OH (disulfide 3-11; N-terminus assumed; SMILES CC[C@H](C)[C@H](NC(=O)CNC)C(=O)N[C@H]1CSSC(C)(C)[C@@H](C(=O)N[C@H](C(=O)N2CCC[C@H]2C(=O)NCC(=O)N[C@@H](CC(=O)O)C(=O)O)[C@@H](C)CC)NC(=O)[C@H]([C@@H](C)CC)NC(=O)[C@@H]2C[C@@H]3CCCC[C@@H]3N2C(=O)[C@@H]2CCCN2C(=O)[C@H](CC(C)C)NC(=O)[C@H](CO)NC(=O)[C@H](CCCNC(=N)N)NC(=O)[C@H](CO)NC1=O) [Example 464: ((N-Me)G)-IC+SRSLP-(Oic)-I-(Pen)+IPGD-OH]
94
